Biological target: T1, RBFOX1 RRM (Homo sapiens, UniProt Q9NWB1 109-208)
T1 sequence: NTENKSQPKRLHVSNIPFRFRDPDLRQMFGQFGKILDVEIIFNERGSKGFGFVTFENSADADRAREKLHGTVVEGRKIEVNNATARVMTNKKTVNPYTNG
Test: EMSA; HiTS-Eq, 1 nM pool, 10 min; buffer printed only for the single-RNA assays: 10 mM Tris pH 7.5, 150 mM NaCl, 3.4 mM EDTA, 0.001% NP-40, 30 C
Conditions: tags: His6 N-terminal (pET28a); label: 5' 32P
Over roughly 16,000 sequences, “ka relative to ugcaugu” has its median near 0.0091; the highest 2% begin near 0.032. Only a selection was taken, and the highest values are over-represented in it overall.
Exercise: for every item that follows, state its recorded binding signal.

# binder, binding signal
records = [
    ("UUGUCCC (DNA:RNA) RNA: GGGAGACCGGAAUUCAGAUUGUCCUUGUCCCUUAAAUCCCGUCGUAGCCACCA DNA 1: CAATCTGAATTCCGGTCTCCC DNA 2: TGGTGGCTACGACGGGATT", "0.0102 KA relative to UGCAUGU"),
    ("UCAUCUC (DNA:RNA) RNA: GGGAGACCGGAAUUCAGAUUGUCCUCAUCUCUUAAAUCCCGUCGUAGCCACCA DNA 1: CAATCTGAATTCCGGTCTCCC DNA 2: TGGTGGCTACGACGGGATT", "0.00423 KA relative to UGCAUGU"),
    ("ACAGCUC (DNA:RNA) RNA: GGGAGACCGGAAUUCAGAUUGUCCACAGCUCUUAAAUCCCGUCGUAGCCACCA DNA 1: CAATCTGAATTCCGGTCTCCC DNA 2: TGGTGGCTACGACGGGATT", "0.00303 KA relative to UGCAUGU"),
]

Please turn your attention to the following entry.
Query string: State the recorded binding signal for this entry: CUUUCCU (DNA:RNA) RNA: GGGAGACCGGAAUUCAGAUUGUCCCUUUCCUUUAAAUCCCGUCGUAGCCACCA DNA 1: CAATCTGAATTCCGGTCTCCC DNA 2: TGGTGGCTACGACGGGATT
Result string: 0.0054 KA relative to UGCAUGU
